Assay: Steady-state plasma pharmacokinetics, open-label randomized three-way crossover study, drugs alone or in combination
Conditions: human, in vivo, 75 mg
In this section, each of the compounds is paired with its reported Tmax.

# compound, unit-abbrev, Tmax
records = [
    ("CCC(CC)O[C@@H]1C=C(C(=O)O)C[C@H](N)[C@H]1NC(C)=O [Oseltamivir carboxylate, oseltamivir carboxylate]", "h", 3.22),
    ("CCOC(=O)C1=C[C@@H](OC(CC)CC)[C@H](NC(C)=O)[C@@H](N)C1 [Oseltamivir, oseltamivir, reference compound]", "h", 0.76),
]

----------
Assay: Steady-state plasma pharmacokinetics, open-label randomized three-way crossover study, drugs alone or in combination
Conditions: human, in vivo, 75 mg
In this section, each of the compounds is paired with its reported AUC(0-t).

# compound, AUC(0-t) (ng·h/mL)
data = [
    ("CCC(CC)O[C@@H]1C=C(C(=O)O)C[C@H](N)[C@H]1NC(C)=O [Oseltamivir carboxylate, oseltamivir carboxylate]", 3430),
    ("CCOC(=O)C1=C[C@@H](OC(CC)CC)[C@H](NC(C)=O)[C@@H](N)C1 [Oseltamivir, oseltamivir, reference compound]", 161),
]
